Format: in vivo
Conditions: FVB, mouse, brain, iv, 10 mg/kg
propertyLabel: Kp uu

input: Quick check: Kp uu of Cc1c(C(=O)O)ccc2c3n(nc12)[C@@H]1[C@H](C3)N(CC2CC2)[C@@]2(C(=O)Nc3cc(Cl)ccc32)[C@H]1c1cccc(Cl)c1F [BI-907828] ?
output: 0.002
